tested on: MOLT-4 leukemia; experiment: NCI-60 one-dose screen, 48 h (100 = growth as untreated, 0 = no growth, -100 = all killed); settings: 10 µM unless noted
Compounds without any hit were thinned out: in the full panel of roughly 83,000, 20% have a hit.
Labelling field: enter Y if recorded growth is less than 40%. Enter N if it equals or exceeds that cut-off.

Some entries whose results are on file:
molecule	classAssignment
CCOC(=O)c1nn(-c2ccc(C)cc2)c(=O)c2c(N)c(C#N)c(-c3ccc(OC)cc3)cc12	N
CC(C)C[C@H]1C(=O)O[C@H](C(C)C)C(=O)N(C)[C@@H](C(C)C)C(=O)O[C@H](C(C)C)C(=O)N(C)[C@@H](C(C)C)C(=O)O[C@H](C(C)C)C(=O)N1C	Y
CN1CCN(c2ccc3c(C(N)=O)c(NC(=O)c4ccc(C(C)(C)C)cc4)sc3c2)CC1	N
CC[C@H](C)[C@H]1NC(=O)[C@@H]([C@H](O)C(C)C)NC(=O)[C@@H](C)N(C)C(=O)[C@H](C)N(C)C(=O)[C@H](CC(C)C)NC(=O)[C@H](CC(C)C)N(C)C(=O)[C@H](C)N(C)C1=O	Y

Query string: Please determine if Clc1ccc(-c2csc(N/N=C/c3nc4ccccc4n3C3CC3)n2)cc1 is below 40% in terms of growth.
Result string: N

Query string: Please determine if NS(=O)(=O)c1ccc(Nc2nc(N/N=C/c3ccc(F)cc3)nc(Nc3ccccc3)n2)cc1 is below 40% in terms of growth.
Result string: Y

Query string: Please determine if CN(C)CCn1c2ccc(N)cc2c2nc3ccccc3nc21 is below 40% in terms of growth.
Result string: Y
